Data provenance is patent US20130123481A1.

System: human embryonic kidney 293 (HEK293) cells
procedure-summary: Toxicity of Nucleoside Triphosphates (NTPs), CYTO TOX-GLO assay
Type: cell-based
run-conditions: human, 48 h, 210 nM
readout-label: percent of viable cells (%)
Dear colleague, please return just the value in %, with no unit written.

Query :: Using known records, supply percent of viable cells for Cc1c[nH]c(=O)nc1N
Result :: 86.44

Query :: Using known records, supply percent of viable cells for Nc1nc2nc[nH]c2c(=O)[nH]1
Result :: 85.31

Query :: Using known records, supply percent of viable cells for Nc1ncnc2nc[nH]c12
Result :: 89.17

Query :: Using known records, supply percent of viable cells for O=c1cc[nH]c(=O)[nH]1
Result :: 88.33

Query :: Using known records, supply percent of viable cells for Nc1cc[nH]c(=O)n1
Result :: 85.36

----------
Provide the reported G-CSF protein (pg/ml) HeLa cells of each item.
System: HeLa cells
procedure-summary: G-CSF expression in HeLa cells (ELISA)
Type: cell-based, human
run-conditions: fully modified G-CSF mRNA transfected in HeLa cells, ELISA

Query :: Using known records, supply G-CSF protein (pg/ml) HeLa cells for Nc1nc(=O)n([C@@H]2O[C@H](CO)[C@@H](O)[C@H]2O)cc1C=O [Compound 5-formyl-cytidine, 5-formyl-cytidine]
Result :: 0 pg/mL

Query :: Using known records, supply G-CSF protein (pg/ml) HeLa cells for O=c1[nH]cc([C@@H]2O[C@H](CO)[C@@H](O)[C@H]2O)c(=O)[nH]1 [pseudouridine, Pseudouridine]
Result :: 1,150,909 pg/ml

Query :: Using known records, supply G-CSF protein (pg/ml) HeLa cells for CC(=O)Nc1ccn([C@@H]2O[C@H](CO)[C@@H](O)[C@H]2O)c(=O)n1 [N4-acetylcytidine]
Result :: 39,545 pg/ml

Query :: Using known records, supply G-CSF protein (pg/ml) HeLa cells for O=c1[nH]c(=S)ccn1[C@@H]1O[C@H](CO)[C@@H](O)[C@H]1O [4-thiouridine]
Result :: 107,273 pg/ml

Query :: Using known records, supply G-CSF protein (pg/ml) HeLa cells for Cn1cnc2c(ncn2[C@@H]2O[C@H](CO)[C@@H](O)[C@H]2O)c1=N [Compound N1-methyl-adenosine, N1-methyl-adenosine]
Result :: 4,773 pg/ml

----------
Test system: peripheral blood mononuclear cells (PBMC)
procedure-summary: In Vitro Screening in PBMC - G-CSF protein expression
Type: cell-based, human
run-conditions: PBMC Donor 3; 500 ng mRNA
Provide the reported G-CSF Protein Expression of each item.
Dear colleague, please return just the value in pg/mL, with no unit written.

Query :: Recall the reported G-CSF Protein Expression of COC(=O)C=Cc1cn([C@@H]2O[C@H](CO)[C@@H](O)[C@H]2O)c(=O)[nH]c1=O [5-(2-carbomethoxyvinyl)uridine] on peripheral blood mononuclear cells (PBMC) and write it down.
Result :: 177

Query :: Recall the reported G-CSF Protein Expression of Cn1cnc2c(ncn2[C@@H]2O[C@H](CO)[C@@H](O)[C@H]2O)c1=N [N1-methyladenosine] on peripheral blood mononuclear cells (PBMC) and write it down.
Result :: 191

Query :: Recall the reported G-CSF Protein Expression of Cc1cn([C@@H]2O[C@H](CO)[C@@H](O)[C@H]2O)c(=O)nc1N [5-Methylcytidine, reference compound] on peripheral blood mononuclear cells (PBMC) and write it down.
Result :: 359

Query :: Recall the reported G-CSF Protein Expression of O=c1[nH]c(=O)n([C@@H]2O[C@H](CO)[C@@H](O)[C@H]2O)cc1Br [5-bromouridine] on peripheral blood mononuclear cells (PBMC) and write it down.
Result :: 291

Query :: Recall the reported G-CSF Protein Expression of O=c1[nH]c(=S)ccn1[C@@H]1O[C@H](CO)[C@@H](O)[C@H]1O [4-thiouridine] on peripheral blood mononuclear cells (PBMC) and write it down.
Result :: 218

Query :: Recall the reported G-CSF Protein Expression of Nc1nc(=O)n([C@@H]2O[C@H](CO)[C@@H](O)[C@H]2O)cc1C=O [5-formylcytidine] on peripheral blood mononuclear cells (PBMC) and write it down.
Result :: 23
